# system under test: Human EphA2 (in house, 0.95 mol biotin/monomer) (Human) (UniProt P29317)
# Sequence (P29317 25-534 limits assumed): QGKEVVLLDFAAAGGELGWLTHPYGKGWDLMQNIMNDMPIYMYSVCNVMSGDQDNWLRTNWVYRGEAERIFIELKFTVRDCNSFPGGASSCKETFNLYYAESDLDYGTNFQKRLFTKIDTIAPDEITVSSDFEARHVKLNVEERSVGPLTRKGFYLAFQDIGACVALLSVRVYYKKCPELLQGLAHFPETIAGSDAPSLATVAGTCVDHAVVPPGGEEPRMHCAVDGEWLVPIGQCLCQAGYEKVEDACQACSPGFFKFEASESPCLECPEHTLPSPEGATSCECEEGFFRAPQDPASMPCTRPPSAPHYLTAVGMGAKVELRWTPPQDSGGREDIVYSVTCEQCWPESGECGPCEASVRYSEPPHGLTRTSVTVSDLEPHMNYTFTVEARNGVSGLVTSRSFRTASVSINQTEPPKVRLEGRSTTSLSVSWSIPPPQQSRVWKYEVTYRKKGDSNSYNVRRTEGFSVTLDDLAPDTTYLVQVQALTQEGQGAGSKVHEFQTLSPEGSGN
# assay protocol: SPR (Biacore), biotinylated human EphA2 on streptavidin chip
*1 amine or outer side, *2 acyl side, *3 side chain or, on linkers, in order; H or OH if unused. Bridges are numbered along the chain shown (N, C = ends). Where no end group is shown, it is not given here. [ ]: non-standard residue; d: D form. The star is where a group is joined. DM1‑SS‑ = DM1-SS- (SPDB) linker/toxin, COc1cc2cc(c1Cl)N(C)C(=O)C[C@H](OC(=O)[C@H](C)N(C)C(=O)CCSSCCCC(=O)*)[C@]1(C)O[C@H]1[C@H](C)[C@@H]1C[C@@](O)(NC(=O)O1)[C@H](OC)/C=C/C=C(\C)C2; TATA = O=C(CC[*:1])N1CN(C(=O)CC[*:2])CN(C(=O)CC[*:3])C1; DM1‑SS(SO3H)‑ = DM1-SS(SO3H)- (SO3H-SPDB) linker/toxin; DM1‑SS‑(Me)‑ = DM1-SS-(Me)- (SPP) linker/toxin; PABC = O=C(OCc1ccc(N[*:1])cc1)[*:2]; Glutaryl = O=C(CCCC(=O)[*:2])[*:1]; hArg = N=C(N)NCCCC[C@H](N)C(=O)O; Cit = NC(=O)NCCC[C@H](N)C(=O)O; βAla = NCCC(=O)O; Sar = CNCC(=O)O
recorded endpoint: pKd
Note: pKd values are expressed as the negative base-10 logarithm of concentration in M.

{DM1‑SS‑}-[βAla][Sar][Sar][Sar][Sar][Sar][Sar][Sar][Sar][Sar][Sar]A[hArg]DCPLVNPLCLHPGWTC (linker 15-22-29 via TATA; not fully specified (C-terminus)) [BCY6031]; 8.70
{DM1‑SS‑(Me)‑}-[βAla][Sar][Sar][Sar][Sar][Sar][Sar][Sar][Sar][Sar][Sar]A[hArg]DCPLVNPLCLHPGWTC (linker 15-22-29 via TATA; not fully specified (C-terminus)) [BCY6032]; 8.68
{MMAE-PABC-Cit-Val-Glutaryl}-[βAla][Sar][Sar][Sar][Sar][Sar][Sar][Sar][Sar][Sar][Sar]A[hArg]DCPLVNPLCLHPGWTC (linker 15-22-29 via TATA; not fully specified (C-terminus)) [BCY6033]; 8.47
{MMAE-PABC-Cit-Trp-Glutaryl}-[βAla][Sar][Sar][Sar][Sar][Sar][Sar][Sar][Sar][Sar][Sar]A[hArg]DCPLVNPLCLHPGWTC (linker 15-22-29 via TATA; not fully specified (C-terminus)) [BCY6034]; 8.79

Ask: Can you share its pKd? I mean this binder: {DM1‑SS(SO3H)‑}-[βAla][Sar][Sar][Sar][Sar][Sar][Sar][Sar][Sar][Sar][Sar]A[hArg]DCPLVNPLCLHPGWTC (linker 15-22-29 via TATA; not fully specified (C-terminus)) [BCY6082]
Result: 8.62
